assay: in vivo; design: species or system Aotus lemurinus lemurinus; conditions: Aotus lemurinus lemurinus, po
MEASURE_NAME: concentration at 24 h

{"COMPOUND": "Nc1nc2c(CN3CC(O)C(CO)C3)c[nH]c2c(=O)[nH]1 (stereo not shown) [BCX4945]", "OBSERVED_RESULT": "~1200 nM"}

====

experiment: in vivo; set-up: species or system Aotus lemurinus lemurinus; conditions: monkey
MEASURE_NAME: half-life

{"COMPOUND": "Nc1nc2c(CN3CC(O)C(CO)C3)c[nH]c2c(=O)[nH]1 (stereo not shown)", "OBSERVED_RESULT": "72 to 78 min"}

====

assay: in vivo; parameters: species or system Aotus lemurinus lemurinus; conditions: monkey, po, 50 mg/kg
MEASURE_NAME: half-life

{"COMPOUND": "Nc1nc2c(CN3CC(O)C(CO)C3)c[nH]c2c(=O)[nH]1 (stereo not shown) [BCX4945]", "MEASURE_NAME": "half-life", "OBSERVED_RESULT": "1.2 h"}

====

test system: P. falciparum strain 3D7; experiment: 72 h in vitro growth inhibition test, PicoGreen DNA quantitation; type: cell-based; settings: Plasmodium falciparum, 3D7, 72 h

{"COMPOUND": "Nc1nc2c(CN3CC(O)C(CO)C3)c[nH]c2c(=O)[nH]1 (stereo not shown)", "SYSTEM_NAME": "P. falciparum strain 3D7", "IC50 / nM": 164}

====

assay: in vivo; design: species or system Aotus lemurinus lemurinus; details: Aotus lemurinus lemurinus
MEASURE_NAME: bioavailability (%)

{"MOLECULE": "Nc1nc2c(CN3CC(O)C(CO)C3)c[nH]c2c(=O)[nH]1 (stereo not shown)", "MEASURE_NAME": "bioavailability", "UNIT_ANNOTATION": "%", "OBSERVED_RESULT": 28}
